Origin of the recorded values: PubChem BioAssay (NCI)

Assay: NCI Yeast Anticancer Drug Screen. Data for the mec2-1 strain (AID 157)
Settings: S. cerevisiae mec2-1 strain, at 50.0 µM
This is part of a sample that, as a whole, favours compounds with a hit. Of some 79,000 tested, about 15% had one in any assay. Activity calls are given as the source filed them. Cut-off read from the data, not from the text of the source: active = growth inhibition above about 70%; inactive = the rest.
Choose one outcome from this list and give only that: True = active, False = inactive

The following molecules have reported results that may help.
>>> df
                                   molecule  qualitative_label
0               CCOC(=O)CCC[n+]1cccc(C#N)c1              False
1             S=c1[nH]c2ccccc2nc1NCc1ccccc1              False
2   Nc1nc(-c2ccc(S(=O)(=O)O)cc2)cc(=O)[nH]1              False
3  c1ccc(-c2nc3cc4ccccc4cc3nc2-c2ccccc2)cc1              False
4         COc1cc(C(=O)N2CCCCCCC2)cc(OC)c1OC              False
5                       Cn1cnc(N)c(N=O)c1=O              False
6       Cn1cnc([N+](=O)[O-])c1/N=C/c1ccccc1              False
7  S=C(N/N=C\c1ccc(Cl)cc1Cl)Nc1ccc2cn[nH]c2c1              False
8               C/C(=N/NC(=O)NN)c1cccc(O)c1              False
9  CCCc1c(C(=O)OCC)[nH]c(C(=O)CCC(=O)c2[nH]c(C(=O)OCC)c(CCC)c2C(=O)OCC)c1C(=O)OCC              False

Assay outcome for CCOC(=O)C1(C(O)(C2CC2)C2(C(=O)OCC)CC2)CC1 : what was it?
False

Assay outcome for Oc1ccc(Cn2c(-c3ccc(O)cc3)nc3ccccc32)cc1 : what was it?
False

Assay outcome for Cc1cccc(C)c1OC(=O)Nc1ccccc1 : what was it?
False

Assay outcome for OCC1NCCCC1O (stereo unspecified) : what was it?
False

Assay outcome for OC1CCCSC1 (stereo unspecified) : what was it?
False

Assay outcome for CC(C)Cc1[nH]nc2c1C(=O)C(Nc1ccccc1)=CC2=O : what was it?
False

Assay outcome for Cc1ccc(CNC2=C(Cl)C(=O)c3ccccc3C2=O)cc1C : what was it?
True

Assay outcome for O=C(O)c1cc(=O)[nH]c(=O)[nH]1.[Cu+2] : what was it?
False

---

Test: NCI Yeast Anticancer Drug Screen. Data for the rad50 strain (AID 155);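 note: 0% = growth of vehicle-only cultures of the same strain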
Details: S. cerevisiae rad50 strain growth inhibition; at 50.0 µM; hits give high values
The panel holds about 79,000 compounds, 15% with a hit somewhere; the sample as a whole holds those more often.
Field: growth inhibition. Provide a value for each of the compounds that follow.
Numbers only, in %.

In [3]: df
Out[3]:
                                   compound  unit_label  test_result
0  N#Cc1cn(C2OC(CO)C3OC32)c2ncnc(NC(=O)c3ccccc3)c12 (stereo unspecified)           %         28.9
1  Cn1c(=O)c2c(nc(N(CCN(N=O)c3nc4c(c(=O)n(C)c(=O)n4C)n3C)N=O)n2C)n(C)c1=O           %          -11
2           Cc1ccc(C(C(=O)O)c2ccc(C)cc2)cc1           %         45.5

Quick request: growth inhibition for each listed item, please.
1. CN1C(c2ccncc2)=NCC12CCCCC2
2. C/C=C(\Cl)C=O
3. O=C(NCc1ccco1)Nc1ccccc1

1: 17.2; 2: 12.4; 3: -5.8

---

Assay: NCI Yeast Anticancer Drug Screen. Data for the sgs1 mgt1 strain (AID 161);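 note: 0% = growth of cultures given vehicle only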
Conditions: S. cerevisiae sgs1 mgt1 strain, at 50.0 µM, hits give high values
Compounds without any hit were thinned out: in the full panel of roughly 79,000, 15% have a hit.
Field: growth inhibition. Provide a value for each of the molecules that follow.
One number for each entry, in %.

Quick request: growth inhibition for each listed item, please.
1. O=C(COc1c(Cl)cc(Cl)c2ccccc12)NC1c2ccccc2Oc2ccccc21
2. CC(=O)Oc1ccc(CCNC(c2ccccc2)c2ccccc2)cc1OC(C)=O
3. COc1cccc(N2C(=O)CC(=P(c3ccccc3)(c3ccccc3)c3ccccc3)C2=O)c1
4. CC1(C)C(CCO)CC1CCO (configuration not stated)
5. Cc1oc2nc(N(C)C)nc(Cl)c2c1C

34.1
42.5
23.9
-1.45
8.25

Quick request: growth inhibition for each listed item, please.
1. CCN(CC)C(=O)c1ccc(C(C)C)cc1
2. COC1OC(COC(=O)c2ccccc2)C(SC(=O)c2ccccc2)C1OC(=O)c1ccccc1 (configuration not stated)
3. CCCCN(CCO)CCO
4. O=C(/C(=C/c1ccc(Cl)cc1)c1ccccc1)c1ccccc1

27.9
-32.5
9.3
6.45

Quick request: growth inhibition for each listed item, please.
1. O=S(=O)(Oc1ccc(-c2ccccc2)cc1Br)c1ccccc1
2. O=N/C(=C(\c1ccccc1)N1CCOCC1)c1ccccc1
3. CC(=O)/C(C=Nc1c(C)n(C)n(-c2ccccc2)c1=O)=C(/C)O

1. 5.55
2. 9.6
3. 28.1

---

Test: NCI Yeast Anticancer Drug Screen. Data for the cln2 rad14 strain (AID 165);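 note: 0% = growth equal to vehicle treated cultures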
Settings: S. cerevisiae cln2 rad14 strain, at 50.0 µM, hits give high values
This is part of a sample that, as a whole, favours compounds with a hit. Of some 79,000 tested, about 15% had one in any assay. Where a SMILES comes first, the peptide text is derived from it. The star is where a group is joined. Boc = CC(C)(C)OC(=O)*
readout-name: growth inhibition (%)
One number for each entry, in %.

Reference set (5 entries):
compound	unit-label	growth inhibition
COc1cc2c(cc1Oc1c(O)c(OC)cc3c1C(C)N(C)CC3)C(C)N(C)CC2 (stereo not drawn)	%	0.8
CC1OC(n2cc(Cl)c(=O)[nH]c2=O)C=C(OC(=O)c2ccccc2)C1=O (stereo not drawn)	%	-16.8
NC1=Nc2cc(C(F)(F)F)ccc2Sc2nc3ccccc3n21	%	13.2
O=C(c1ccccc1)c1ccc2[nH]ccc(=O)c2c1	%	-31.1
CCOC(=O)N1CCc2cc(OC)c(OC)c3c2c1cc1cc(OC)c(OC)cc13	%	-35.5

Quick request: growth inhibition for each listed item, please.
1. N#CC1(c2ccccc2)C(c2ccccc2)CC(O)(c2ccccc2)C(C(=O)c2ccccc2)C1c1ccccc1 (stereo not drawn)
2. CC12NC(=O)NC1(C)NC(=O)N2 (stereo not drawn)
3. CCCCCCCCCCCCCCCCCCCCCCBr
4. COc1ccc(NC(C)=O)cc1[N+](=O)[O-]
5. C=C1C(=O)OC2CC3(CO3)C3C(O)C(O)CC3(C)CC12 (stereo not drawn)
6. O=C1O/C(=C(\Br)c2cccc3ccccc23)c2ccccc21

[14.3, -38.9, 21.4, -13.3, -13.6, 11.2]

Quick request: growth inhibition for each listed item, please.
1. CC(C)(C)[Si](C)(C)OC1C(=O)C[C@H]2CCCC[C@@H]12 (stereo partly drawn)
2. CCOC(=O)CCC(NC(=O)c1ccc(N(C)C=O)cc1)C(=O)OCC (stereo not drawn)
3. COC(=O)C(Cc1c[nH]c2ccccc12)NC(=O)C(Cc1c[nH]c2ccccc12)NC(=O)C(Cc1c[nH]c2ccccc12)NC(=O)OC(C)(C)C (stereo not drawn) (Boc-Trp-Trp-Trp-OMe; configuration not given here)
4. COc1ccc(C2NCCCC2c2ccccc2)cc1 (stereo not drawn)
5. C=C(CCl)CCl

1. 17.1
2. -6.8
3. 10
4. 14.8
5. 12.5

Quick request: growth inhibition for each listed item, please.
1. COC(=O)CCCN1C(=O)c2ccccc2C1=O
2. COc1ccc(CC(=O)NCCc2ccc(OC)c(OC)c2)cc1Br
3. COc1cccc(NC(=O)C(=O)C2C=CCS2(=O)=O)c1 (stereo not drawn)
4. N#Cc1cc2ccccc2n(Cc2ccccc2)c1=O

-69.8
8.35
-6.6
7.85

Quick request: growth inhibition for each listed item, please.
1. OCCN(CCO)c1ncnc2c1ncn2Cc1ccccc1
2. CC1CC(C)NC(=O)N1 (stereo not drawn)
3. COC(=O)N1C(C#N)=CCc2ccccc21
4. Nc1nc(N)c2c(Cl)c(CNc3ccc(C(=O)NC(CC(=O)O)CC(=O)O)cc3)ccc2n1
5. Oc1ccc(-c2nnc(-c3ccc(O)cc3)nn2)cc1
6. COc1ccc2ccc3cccnc3c2n1
7. C=CCCCCCCCCCOC=O

1: -42.2; 2: 16.1; 3: -6.25; 4: -1.35; 5: 17.4; 6: -2.35; 7: -19.8

Quick request: growth inhibition for each listed item, please.
1. Oc1ccc([C@H]2Oc3c(c(O)cc4c3C3c5c(O)cc(O)cc5OC(c5ccc(O)cc5)(O4)[C@H]3O)CC2O)cc1 (stereo partly drawn)
2. O=C(O)c1c(Br)c(Br)c(Br)c(Br)c1C1c2ccc(O)cc2Oc2cc(O)ccc21

1: -4.65; 2: -7.75

Quick request: growth inhibition for each listed item, please.
1. CCOC(=O)COc1ccc2c(C)cc(=O)oc2c1[N+](=O)[O-]
2. COc1ccc(OC(C)C(=O)O)cc1 (stereo not drawn)
3. CCNc1nnc(N=Nc2ccccc2)s1
4. CC(C)(C)OC(=O)CN1C(=O)CCC1=O
5. COc1ccc(CC#N)cc1OC
6. Cc1nc(N)sc1C(=O)/C=C\c1ccc2c(c1)OCO2
7. Cc1n[nH]c(=O)n1-n1cccc1
8. O=S(=O)(O/C(=C(\OS(=O)(=O)C(F)(F)C(F)(F)C(F)(F)C(F)(F)F)c1ccccc1)c1ccccc1)C(F)(F)C(F)(F)C(F)(F)C(F)(F)F

6.95
-31.5
-2
-26.1
-54.8
10.3
7.1
-18.1

Quick request: growth inhibition for each listed item, please.
1. Cc1ccc(S(=O)(=O)NNC(=O)Nc2cccc(C(F)(F)F)c2)cc1
2. CC(=O)Nc1nc(C)c(S(=O)(=O)Cl)s1
3. C=CC(=O)OCCC#N

-2.15
23.2
2.8

Quick request: growth inhibition for each listed item, please.
1. O=C1OC(c2ccc(Cl)cc2)=C/C1=C/c1ccccn1
2. CC1CN(CNC(=O)NCN2CC(C)OC(C)C2)CC(C)O1 (stereo not drawn)
3. Cc1ccc(/C(O)=C/c2nc3c(nc2NC24CC5CC(CC(C5)C2)C4)c(=O)oc2ccccc23)cc1
4. S=c1nc[nH]c2c1cnn2-c1ccccc1
5. O=C(c1ccc(Cl)s1)C(Cl)C(Cl)c1ccc(Cl)s1 (stereo not drawn)

1: -34; 2: 11.9; 3: -3.7; 4: -13.2; 5: -12.4
